# test-protocol: Cytostatic activity
# Assay type: cell-based
# measurement-setup: human, HEL cells, non-infected
Quick list: CC50 at 3 days per entry.
Just so you know, I need the unit written after the number.

# count of solved cases: 3
C[C@H](Cn1cnc2c(N)ncnc21)OCP(=O)(O)O ... 547 µg/mL
Nc1ncnc2c1ncn2CCOCP(=O)(O)O [Adefovir, 9-[2-(phosphonylmethoxyethyl)adenine]] ... 100 µg/mL
Nc1ccn(C[C@@H](CO)OCP(=O)(O)O)c(=O)n1 ... 82 µg/mL

Okay, next one:
// CC50 at 3 days lookup, key: Nc1nc2c(ncn2COCCO)c(=O)[nH]1 [Acyclovir, 9-(2-hydroxyethoxy-methyl)guanine]
166 µg/mL

----------
Quick list: Cell toxicity MCC (minimum cytotoxic concentration) per entry.
# Tested on: HEL cells
# test-protocol: Cytotoxicity by cell morphology
# Type: cell-based, human
# measurement-setup: HEL, non-infected, cell morphology

# count of solved cases: 3
Nc1ccn(C[C@@H](CO)OCP(=O)(O)O)c(=O)n1 ... >100 µg/mL
C[C@H](Cn1cnc2c(N)ncnc21)OCP(=O)(O)O ... >400 µg/mL
Nc1ncnc2c1ncn2CCOCP(=O)(O)O [Adefovir, 9-[2-(phosphonylmethoxyethyl)adenine]] ... >100 µg/mL

// Cell toxicity MCC (minimum cytotoxic concentration) lookup, key: Nc1nc2c(ncn2COCCO)c(=O)[nH]1 [Acyclovir, 9-(2-hydroxyethoxy-methyl)guanine]
>100 µg/mL

----------
# test-protocol: Cytostatic activity
# Assay type: cell-based
# measurement-setup: human, PHKs, non-infected
measured-parameter: CC50 at 3 days (µg/mL)
Just the number please, in µg/mL, no unit attached.

# count of solved cases: 2
Nc1ccn(C[C@@H](CO)OCP(=O)(O)O)c(=O)n1 [Cidofovir] ... 34
Nc1nc2c(ncn2COCCO)c(=O)[nH]1 [Acyclovir, 9-(2-hydroxyethoxy-methyl)guanine] ... 132

Okay, next one:
// CC50 at 3 days lookup, key: Nc1ncnc2c1ncn2CCOCP(=O)(O)O [Adefovir, 9-[2-(phosphonylmethoxyethyl)adenine]]
17
